- measured.on: human bradykinin 1 receptor (B1R) (Homo sapiens, UniProt P46663)
- Construct: expressed in transfected cells; host or cells: CHO K1 cells
- Sequence (P46663 1-353): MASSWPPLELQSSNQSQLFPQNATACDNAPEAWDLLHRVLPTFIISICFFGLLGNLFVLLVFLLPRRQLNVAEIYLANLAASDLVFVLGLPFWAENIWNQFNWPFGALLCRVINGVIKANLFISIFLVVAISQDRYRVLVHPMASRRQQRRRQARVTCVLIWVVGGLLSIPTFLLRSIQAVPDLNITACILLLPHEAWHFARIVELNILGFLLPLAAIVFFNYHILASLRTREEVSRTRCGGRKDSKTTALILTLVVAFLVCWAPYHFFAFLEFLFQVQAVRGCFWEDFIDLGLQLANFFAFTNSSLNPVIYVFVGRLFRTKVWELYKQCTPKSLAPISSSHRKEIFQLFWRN
- assay.info: Functional investigation on the human bradykinin 1 receptor (B1R), Ca2+ FLIPR assay in CHO K1 hB1R cells
- Type: cell-based
- assay.setup: CHO-K1, B1R antagonism human; test substance 10 μM; Ca2+ FLIPR, CHO K1 hB1R cells; read-out: B1R Ant. h [10 μM] % Inhibition
assay.endpoint: inhibition at 10 µM (%)
Numbers only here, please. The scale is %.

Determine reported inhibition at 10 µM for COc1cc(C)c(S(=O)(=O)N2CCC(OCC(=O)NC3CCC(C(c4ccccc4)N4CCN(C)CC4)CC3)C2)c(C)c1 (stereo not shown) [Example 688] ; test system: human bradykinin 1 receptor (B1R) (Homo sapiens, UniProt P46663). 103

// fetch inhibition at 10 µM for COc1cc(C)c(S(=O)(=O)N2CCCCC2COCC(=O)NCC2CCC(C(CCc3ccccc3)N3CCCC3)CC2)c(C)c1 (stereo not shown) [Example 736] ; system: human bradykinin 1 receptor (B1R) (Homo sapiens, UniProt P46663) 103

Would you please give the reported inhibition at 10 µM of CN1CCN(C(c2ccccc2)C2CCC(NC(=O)COCC3CCCCN3S(=O)(=O)c3c(Cl)cc(Cl)cc3Cl)CC2)CC1 (stereo not shown) [Example 739] with human bradykinin 1 receptor (B1R) (Homo sapiens, UniProt P46663)? 104

Retrieve inhibition at 10 µM on human bradykinin 1 receptor (B1R) (Homo sapiens, UniProt P46663); query CN(C)C(c1cccc(F)c1)C1CCC(CNC(=O)COC2CCCCC2N(C)S(=O)(=O)c2ccc(Cl)c(Cl)c2)CC1 (stereo not shown) [Example 164] 14
